Sourced from ChEMBL document CHEMBL5724801

System: Fibroblast
protocolNotes: Multiplex assay against human fibroblast
Format: toxicity, cell-based
conditionsUsed: 12 h, 1 µM, compound concentration 1 uM
The compounds listed here are annotated with their Population Hoechst High Intensity Objects (%).
Write the answer as a number in %, unit excluded.

// worked examples, Population Hoechst High Intensity Objects (%) included
Cn1cnc(-c2cnc(O[C@H]3CCN(C(=O)Cc4ccc(OC(F)(F)F)cc4)C[C@H]3F)c(C(N)=O)c2)c1 : 0
CC(C)Oc1ccc(F)c(-c2cnc(N)c(C(=O)Nc3cnccc3N3CCC[C@@H](C(=O)O)C3)n2)c1 : 0
CCN1CCN(Cc2ccc(Nc3ncc(F)c(-c4cc(F)c5nc(C)n(C(C)C)c5c4)n3)nc2)CC1.CS(=O)(=O)O : 0
O=C1NCc2ccc3c(-c4cccc(Cl)c4)c[nH]c3c21 : 0

What does the data say about its Population Hoechst High Intensity Objects (%)? Entry: Cl.NCCc1ccc(O)c(O)c1 [DOPAMINE HYDROCHLORIDE] 1

And for S=c1[nH]nc(-c2cccs2)n1-c1ccccc1 ? 0

And for CN1CCN2c3ncccc3Cc3ccccc3C2C1 (stereo not drawn) ? 3

And for c1ccc2nc(N3CCNCC3)ccc2c1 ? 0

* * *

System: U2OS
protocolNotes: Multiplex assay against U2OS
Format: toxicity, cell-based
conditionsUsed: human, 12 h, 10 µM, compound concentration 10 uM
The compounds listed here are annotated with their Population Normal (%).
Field note: include the unit after the figure.

What does the data say about its Population Normal (%)? Entry: CC(C)Oc1ccc(F)c(-c2cnc(N)c(C(=O)Nc3cnccc3N3CCC[C@@H](C(=O)O)C3)n2)c1 100%

And for CC/C(=C(\c1ccc(O)cc1)c1ccc(OCCN(C)C)cc1)c1ccccc1 ? 100%

And for CCN1CCN(Cc2ccc(Nc3ncc(F)c(-c4cc(F)c5nc(C)n(C(C)C)c5c4)n3)nc2)CC1.CS(=O)(=O)O ? 100%

* * *

The molecules listed here are annotated with their Population Hoechst High Intensity Objects (%).
Tested on: Fibroblast
protocolNotes: Multiplex assay against human fibroblast
Format: toxicity, cell-based
conditionsUsed: 48 h, 1 µM, compound concentration 1 uM
Write the answer as a number in %, unit excluded.

// worked examples, Population Hoechst High Intensity Objects (%) included
CC/C(=C(\c1ccc(O)cc1)c1ccc(OCCN(C)C)cc1)c1ccccc1 : 0
Cl.NCCc1ccc(O)c(O)c1 [DOPAMINE HYDROCHLORIDE] : 6
COc1cc2ncnc(Nc3ccc(Oc4ccccc4)cc3C)c2cc1OC.Cl : 0
O=C1NCc2ccc3c(-c4cccc(Cl)c4)c[nH]c3c21 : 0

What does the data say about its Population Hoechst High Intensity Objects (%)? Entry: CCc1nn2c(C)cc(C)nc2c1Cc1ccc(-c2nnc(C3CCNCC3)o2)cc1 4

And for C=C(C)[C@H]1CN[C@H](C(=O)O)[C@H]1CC(=O)O ? 0

And for COc1ccc2nc3ccc(OC)cc3c(SCCCN)c2c1.Cl ? 0

And for O=C1N=C(NCc2cccs2)S/C1=C\c1ccc2ncccc2c1 ? 0

* * *

Test system: Fibroblast
protocolNotes: Multiplex assay against human fibroblast
Assay type: toxicity, cell-based
conditionsUsed: 24 h, 1 µM, compound concentration 1 uM
The compounds listed here are annotated with their Population Hoechst High Intensity Objects (%).
Write the answer as a number in %, unit excluded.

CC(C)Oc1ccc(F)c(-c2cnc(N)c(C(=O)Nc3cnccc3N3CCC[C@@H](C(=O)O)C3)n2)c1 : 0

What does the data say about its Population Hoechst High Intensity Objects (%)? Entry: S=c1[nH]nc(-c2cccs2)n1-c1ccccc1 0

And for Cn1cnc(-c2cnc(O[C@H]3CCN(C(=O)Cc4ccc(OC(F)(F)F)cc4)C[C@H]3F)c(C(N)=O)c2)c1 ? 0

And for O=c1cccc2n1C[C@@H]1CNC[C@H]2C1 [CYTISINICLINE] ? 0

And for CSc1nc(NC2CCCC2)c([N+](=O)[O-])c(NC2CCCC2)n1 [GS-39783] ? 2

And for CC(C)c1ccc(/C=N/NC(=O)c2ccc(O)cc2)cc1 ? 0

* * *

Test system: U2OS
protocolNotes: Multiplex assay against U2OS
Assay type: toxicity, cell-based
conditionsUsed: human, 24 h, 1 µM, compound concentration 1 uM
The compounds listed here are annotated with their Population Hoechst High Intensity Objects (%).
Write the answer as a number in %, unit excluded.

// worked examples, Population Hoechst High Intensity Objects (%) included
COCCn1c(C)c(C)s/c1=N\C(=O)C1C(C)(C)C1(C)C : 0
CNC[C@H](O)c1ccc(O)c(O)c1 [EPINEPHRINE] : 2
C=C(C)[C@H]1CN[C@H](C(=O)O)[C@H]1CC(=O)O : 0
CC/C(=C(\c1ccc(O)cc1)c1ccc(OCCN(C)C)cc1)c1ccccc1 : 0
CC(C)Oc1ccc(F)c(-c2cnc(N)c(C(=O)Nc3cnccc3N3CCC[C@@H](C(=O)O)C3)n2)c1 : 0
COc1cc2ncnc(Nc3ccc(Oc4ccccc4)cc3C)c2cc1OC.Cl : 0
O=C1N=C(NCc2cccs2)S/C1=C\c1ccc2ncccc2c1 : 0
CC(C)c1ccc(/C=N/NC(=O)c2ccc(O)cc2)cc1 : 0

What does the data say about its Population Hoechst High Intensity Objects (%)? Entry: CCN1CCN(Cc2ccc(Nc3ncc(F)c(-c4cc(F)c5nc(C)n(C(C)C)c5c4)n3)nc2)CC1.CS(=O)(=O)O 0

And for O=c1cccc2n1C[C@@H]1CNC[C@H]2C1 ? 0

And for Cl.Cl.N#Cc1ccc(O[C@@H]2c3ccccc3C[C@H]2N2CCC[C@@H](N)C2)c(Cl)c1 ? 0

And for C[C@@H]1C[C@H]2[C@@H]3CCC4=CC(=O)C=C[C@]4(C)[C@@]3(F)[C@@H](O)C[C@]2(C)[C@@]1(O)C(=O)CO ? 2

* * *

Tested on: Fibroblast
protocolNotes: Multiplex assay against human fibroblast
Format: toxicity, cell-based
conditionsUsed: 24 h, 10 µM, compound concentration 10 uM
The compounds listed here are annotated with their Population Normal (%).
Write the answer as a number in %, unit excluded.

// worked examples, Population Normal (%) included
CNC[C@H](O)c1ccc(O)c(O)c1 [EPINEPHRINE] : 96
c1ccc2nc(N3CCNCC3)ccc2c1 : 100
CC(C)Oc1ccc(F)c(-c2cnc(N)c(C(=O)Nc3cnccc3N3CCC[C@@H](C(=O)O)C3)n2)c1 : 100
O=C(Nc1ccccc1Cl)c1cnc2ccc(C3CCNCC3)cn12.O=C(O)C(=O)O : 100
Cl.Cl.N#Cc1ccc(O[C@@H]2c3ccccc3C[C@H]2N2CCC[C@@H](N)C2)c(Cl)c1 : 100

What does the data say about its Population Normal (%)? Entry: C=C(C)[C@H]1CN[C@H](C(=O)O)[C@H]1CC(=O)O 100

And for O=C(CCCc1ccccc1)Nc1nc2ccccc2c(=O)s1 ? 94

And for CCN1CCN(Cc2ccc(Nc3ncc(F)c(-c4cc(F)c5nc(C)n(C(C)C)c5c4)n3)nc2)CC1.CS(=O)(=O)O ? 100

* * *

System: Fibroblast
protocolNotes: Multiplex assay against human fibroblast
Format: toxicity, cell-based
conditionsUsed: 12 h, 1 µM, compound concentration 1 uM
readoutKind: Population Hoechst High Intensity Objects (%)
Write the answer as a number in %, unit excluded.

COC[C@@H](c1ccc(C(F)(F)F)cc1)N1CCN(C2(C)CCN(C(=O)c3c(C)ncnc3C)CC2)C[C@@H]1C.O=C(O)/C=C\C(=O)O [VICRIVIROC MALEATE] : 4
CC(C)c1ccc(/C=N/NC(=O)c2ccc(O)cc2)cc1 : 0

Now take the following compound into account.
// fetch Fibroblast Population Hoechst High Intensity Objects (%) for Cl.Cl.N#Cc1ccc(O[C@@H]2c3ccccc3C[C@H]2N2CCC[C@@H](N)C2)c(Cl)c1 0

* * *

The molecules listed here are annotated with their Population Normal (%).
Test system: HEK-293T
protocolNotes: Multiplex assay against HEK293T
Assay type: toxicity, cell-based
conditionsUsed: human, 12 h, 10 µM, compound concentration 10 uM
Field note: include the unit after the figure.

What does the data say about its Population Normal (%)? Entry: O=C1N=C(NCc2cccs2)S/C1=C\c1ccc2ncccc2c1 100%

And for S=c1[nH]nc(-c2cccs2)n1-c1ccccc1 ? 100%

And for CN1CCN2c3ncccc3Cc3ccccc3C2C1 (stereo not drawn) ? 93%

* * *

Tested on: HEK-293T
protocolNotes: Multiplex assay against HEK293T
Format: toxicity, cell-based
conditionsUsed: human, 24 h, 10 µM, compound concentration 10 uM
readoutKind: Population Normal (%)
Write the answer as a number in %, unit excluded.

// worked examples, Population Normal (%) included
CCN1CCN(Cc2ccc(Nc3ncc(F)c(-c4cc(F)c5nc(C)n(C(C)C)c5c4)n3)nc2)CC1.CS(=O)(=O)O : 100
CC(C)c1ccc(/C=N/NC(=O)c2ccc(O)cc2)cc1 : 100
CC/C(=C(\c1ccc(O)cc1)c1ccc(OCCN(C)C)cc1)c1ccccc1 : 100
O=C1N=C(NCc2cccs2)S/C1=C\c1ccc2ncccc2c1 : 100

Now take the following molecule into account.
What does the data say about its Population Normal (%)? Entry: Cl.NCCc1ccc(O)c(O)c1 [DOPAMINE HYDROCHLORIDE] 94
